System: NCI-H522 lung
experimental-protocol: NCI-60 one-dose screen, 48 h (100 = growth as untreated, 0 = no growth, -100 = all killed)
measurement-context: 10 µM unless noted
Method: Growth inhibition of the NCI-H522 human Non-Small Cell Lung tumor cell line is measured as a screen for anti-cancer activity. Cells are grown in 96 well plates and exposed to the test compound for 48 hours. Compounds are tested at a single concentration, which is 10^-5 M for most compounds. The reported endpoint is percent growth (GI% or GIPRCNT), where numbers from 0 - 100% represent growth inhibition, and numbers from -100% - 0 represent cell death. […]
About 83,000 compounds went through this panel and 20% of them were active in at least one assay; those are over-represented in the sample as a whole.
Label fulfilled when growth is at or above 50%; otherwise label not fulfilled.

Completed entries (count: 3):
compound	system-name	group
COc1ccc(-c2cc(C(=O)Oc3ccc(C=O)cc3OC)nn2-c2ccc(S(C)(=O)=O)cc2)cc1	NCI-H522 lung	fulfilled
Cn1cc(Nc2ncnc(-c3ccc(N4CCCC4)c(C#N)c3)n2)cn1	NCI-H522 lung	not fulfilled
O=CNc1cccc(-n2cnc3cc(-c4ccc(O)cc4)ccc32)c1	NCI-H522 lung	not fulfilled

Exam item: decide whether the reported growth for `Cc1ccc(C(=O)C[n+]2cccc3c4ccccc4ccc32)cc1` is at least 50%.
not fulfilled

Exam item: decide whether the reported growth for `O=C(N=Nc1c(O)[nH]c2ccc(Br)cc12)c1ccc2nc(-c3ccc(Cl)cc3)[nH]c2c1` is at least 50%.
not fulfilled

Exam item: decide whether the reported growth for CC1CCc2c(sc3nc(SCC(=O)c4cccc([N+](=O)[O-])c4)n(-c4ccccc4)c(=O)c23)C1 (centres undefined) is at least 50%.
fulfilled

Exam item: decide whether the reported growth for `CC[C@]12C=CCN3CC[C@@]4(c5ccc(OC)cc5N(C)[C@H]4[C@@](O)(C(=O)OC)[C@@H]1OC(=O)CCC[P+](c1ccc(OC)cc1)(c1ccc(OC)cc1)c1ccc(OC)cc1)[C@@H]32` is at least 50%.
not fulfilled

Exam item: decide whether the reported growth for `Cc1ccc(C(C)C)cc1Oc1cccc(-c2c(-c3ccc(C(F)(F)F)cc3)ncn2C2CCNCC2)n1` is at least 50%.
not fulfilled

Exam item: decide whether the reported growth for COc1ccc(NC(=O)NN2C(=O)c3ccccc3N(C)C2c2ccc(OC)cc2)cc1 (centres undefined) is at least 50%.
fulfilled

Exam item: decide whether the reported growth for `COC(=O)CSC1=C(C)C(=O)C(OC)=C(OC)C1=O` is at least 50%.
fulfilled

Exam item: decide whether the reported growth for `O=C(Nc1ccc(Br)cc1)Nc1ccc(-c2ccc3c(c2)NC(=O)/C3=C\c2ccc[nH]2)cc1` is at least 50%.
not fulfilled

Exam item: decide whether the reported growth for `COC(=O)c1cc(C(C)=O)n2c3ccccc3c3ccccc3c12` is at least 50%.
fulfilled

Exam item: decide whether the reported growth for Oc1ccc(Cl)c(Nc2ncnc3c2cnn3CC(Cl)c2ccc(Br)cc2)c1 (centres undefined) is at least 50%.
fulfilled

Exam item: decide whether the reported growth for `Cc1cccc(/C=C/c2ccc(NC(=S)NCCCCN(C)C)cc2)c1` is at least 50%.
not fulfilled

###

Test system: LOX IMVI melanoma
experimental-protocol: NCI-60 one-dose screen, 48 h
measurement-context: 10 µM unless noted
About 83,000 compounds went through this panel and 20% of them were active in at least one assay; those are over-represented in the sample as a whole. Active and inactive are the calls of the source. How the source made its calls: active means growth percent below 10; inactive means the rest.
Hi! Could you answer with just one of these? active, inactive

Completed entries (count: 5):
compound	group
N#C/C(=C/c1ccc([N+](=O)[O-])cc1)c1nnc(NC(=O)c2ccc(-n3c(=O)[nH]c4ccccc4c3=O)cc2)s1	inactive
Cc1ccc(C2CC(c3ccc(S(=O)(=O)NCCNc4nc(N(C)C)nc(N5CCOCC5)n4)cc3)=Nc3c(N)nc(N)nc3N2)cc1 (stereo not given)	inactive
Cc1nn(-c2ccccc2)c2nc(C)n(CC(=O)N/N=C/c3cccc([N+](=O)[O-])c3)c(=O)c12	inactive
COc1cc(/C=C/C(=O)c2ccc(S(=O)(=O)NCCNc3nc(N(C)C)nc(N4CCOCC4)n3)cc2)cc(OC)c1OC	active
Cc1ccc(C(=O)Nc2cc(-c3ccncc3)cc(C(F)(F)F)c2)cc1C#Cc1cnc2cccnn12	inactive

// param item: `CC(C)(C)C(=O)c1c2c(c3ccc4c5ccccc5ccc4n13)C(=O)c1ccccc1C2=O` ; yields the recorded call
inactive

// param item: `O=C(NN1C(=O)/C(=C/C=C/c2ccc([N+](=O)[O-])o2)SC1=S)c1ccc(O)cc1` ; yields the recorded call
active

// param item: `C/C(=N/O)c1ccc(NC(=O)CSc2nnc(-c3ccc4nc(-c5ccc(Cl)cc5)[nH]c4c3)o2)cc1` ; yields the recorded call
active

// param item: `COc1c(B(O)O)cccc1-c1nc2ccc3cn[nH]c3c2c2c1CCCC2` ; yields the recorded call
inactive

// param item: O=C(c1ccc(O)cc1)C1[C@H](c2ccc(Cl)cc2)[C@@H](c2ccccc2)NC12C(=O)Nc1ccc(Br)cc12 (stereo not given in full) ; yields the recorded call
active

// param item: `NCCCCn1c(SCCc2c[nH]c3ccccc23)nnc1-c1ccc2ccccc2n1` ; yields the recorded call
active

// param item: `O=C1Nc2cc(-c3ccc(NS(=O)(=O)c4ccc([N+](=O)[O-])cc4)cc3)ccc2/C1=C/c1ccc[nH]1` ; yields the recorded call
active

// param item: COc1cc(C2C(C(=O)OCc3ccccc3)=C(C)Nc3nc4ccccc4n32)cc(OC)c1OC (stereo not given) ; yields the recorded call
inactive

// param item: `N#C/C(=C/c1ccc(Cl)cc1)c1nnc(NC(=O)c2ccc(-n3c(=O)[nH]c4ccccc4c3=O)cc2)s1` ; yields the recorded call
inactive

// param item: `O=C(Nc1nc2ccccc2s1)Nc1ccccc1Cl` ; yields the recorded call
inactive

// param item: `O=C(Nc1ccc(Br)cc1)Nc1ccc(-c2ccc3c(c2)NC(=O)/C3=C\c2ccc[nH]2)cc1` ; yields the recorded call
inactive

// param item: `CC1=C(C)C(=O)C(NCCN2CCOCC2)=C(Br)C1=O` ; yields the recorded call
active

// param item: `O=C(Cn1c(/C=C/c2ccc([N+](=O)[O-])cc2)nc2ccccc2c1=O)Nc1ccccc1` ; yields the recorded call
inactive

// param item: `COc1cc(CNC(=O)C[C@H](C)CCC=C(C)C)ccc1OCc1cn(-c2ccccc2F)nn1` ; yields the recorded call
inactive

// param item: Fc1ccc(F)c(CNc2nc(SCCN3CCOCC3)nc3c2cnn3CC(Cl)c2ccc(Br)cc2)c1 (stereo not given) ; yields the recorded call
active

// param item: `COC(=O)c1cc(C(=O)C(Br)Br)n2c1ccc1c3ccccc3ccc12` ; yields the recorded call
inactive

// param item: Clc1ccc(CNc2nc(SCCN3CCOCC3)nc3c2cnn3CC(Cl)c2ccc(Br)cc2)cc1 (stereo not given) ; yields the recorded call
inactive

// param item: COc1ccc2c(c1)C(Sc1ccc(F)cc1)c1c(nc(N)c(C#N)c1N)O2 (stereo not given) ; yields the recorded call
inactive

The measurements presented in this section are drawn from PubChem BioAssay (NCI).
